Source listed as patent US20240239875A1.

Target: T1, HCoV-OC43 spike protein (HCoV-OC43)
T1 chain: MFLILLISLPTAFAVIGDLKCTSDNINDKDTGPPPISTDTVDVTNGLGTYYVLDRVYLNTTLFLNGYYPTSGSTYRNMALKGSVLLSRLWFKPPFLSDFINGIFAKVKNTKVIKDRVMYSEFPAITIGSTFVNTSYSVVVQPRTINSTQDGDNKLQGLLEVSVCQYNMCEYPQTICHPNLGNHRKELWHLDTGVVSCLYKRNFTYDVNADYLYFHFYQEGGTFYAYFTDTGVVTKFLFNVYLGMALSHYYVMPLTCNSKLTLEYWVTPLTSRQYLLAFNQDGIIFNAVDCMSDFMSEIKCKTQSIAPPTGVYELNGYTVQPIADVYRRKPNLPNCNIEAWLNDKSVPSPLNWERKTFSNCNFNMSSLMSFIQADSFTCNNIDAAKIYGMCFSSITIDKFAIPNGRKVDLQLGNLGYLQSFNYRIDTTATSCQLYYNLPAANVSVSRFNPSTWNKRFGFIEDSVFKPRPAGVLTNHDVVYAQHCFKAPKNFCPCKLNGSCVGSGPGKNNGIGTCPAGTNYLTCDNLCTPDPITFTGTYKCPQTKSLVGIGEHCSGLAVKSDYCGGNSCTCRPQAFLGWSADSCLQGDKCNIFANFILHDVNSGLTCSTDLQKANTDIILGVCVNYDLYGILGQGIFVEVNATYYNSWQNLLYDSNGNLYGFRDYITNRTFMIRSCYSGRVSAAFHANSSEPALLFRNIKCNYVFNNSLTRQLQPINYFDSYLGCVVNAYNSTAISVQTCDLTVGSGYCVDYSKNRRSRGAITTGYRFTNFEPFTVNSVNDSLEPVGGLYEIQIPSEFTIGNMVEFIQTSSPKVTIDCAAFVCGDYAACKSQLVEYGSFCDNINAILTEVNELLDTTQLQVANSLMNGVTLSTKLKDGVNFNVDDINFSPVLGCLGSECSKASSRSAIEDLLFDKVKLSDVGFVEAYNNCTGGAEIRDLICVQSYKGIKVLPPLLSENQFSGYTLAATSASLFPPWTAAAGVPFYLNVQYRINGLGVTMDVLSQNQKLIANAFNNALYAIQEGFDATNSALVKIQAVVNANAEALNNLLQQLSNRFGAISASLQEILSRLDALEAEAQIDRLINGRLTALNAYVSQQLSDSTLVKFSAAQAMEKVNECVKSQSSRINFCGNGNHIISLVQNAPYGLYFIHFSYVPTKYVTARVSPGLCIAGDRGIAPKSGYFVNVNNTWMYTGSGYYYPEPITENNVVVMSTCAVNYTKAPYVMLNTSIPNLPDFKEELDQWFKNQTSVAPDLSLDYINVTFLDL
Assay: ELISA
pEC50: −log10 of the molar value.
MEASURED_METRIC: pEC50

# BINDER, MEASURED_METRIC, READOUT_VALUE
records = [
    ("6-O12-A (antibody, V domains shown) VH: QVQLQQPGTELVKPGASVKLSCKASGYTFTSYWMHWVKQRPGQGLEWIGNINPSNGGTNYNEKFRSKATLTVDKSSSTAYMQLSSLTSEDSAVYYCARLGWFLPLGSWGQGTTLTVSS VL: QIVLTQSPAIMSASLGEVITLTCSASSSVSYMHWYQQKSGTSPKLLIYSTSNLASGVPSRFSGSGSGTFYSLTISSVEAEDAADYYCHQWSGYMYTFGGGTKLEIK", "pEC50", 9.64),
    ("2-G20-A (antibody, V domains shown) VH: EVQLQQSGPELVKPGASVKMSCKASGYTFPSYVLHWVKQKPGQGLEWIGYIYPYNDGTNYNEKFKGKATLTSDKSSSTAYMELSSLTSEDSAVYYCARGDYGDSAWFPYWGQGTLVTVSA VL: DIVLTQSPASLAVSLGQRATISCRASKSVSTSGYSYMHWYQQKPGQPPKLLIYLASNLKSGVPARFSGGGSGTDFTLNIHPVEEEDAATYYCQLSRELPWTFGGGTKLEIK", "pEC50", 9.55),
]
